SYSTEM_UNDER_TEST: nucleosome reconstituted with human core histones and Widom 601 DNA (human, UniProt P04908 2-130; P06899 1-126; P68431 1-136; P62805 2-103)
MEASUREMENT_NOTES: MST
MEASUREMENT_LABEL: pKd
API: returns pKd as number; meaning -log10 of concentration in mol/L.

Query: Return reported pKd; argument: His6-tagged RING domain heterodimer, wild type (GST-RING^A with His6-Twin-Strep-Rad6A-RING^B) (complex, RED-Tris-NTA label on the His6 tag) chain 1: PDNVPKCDEILMEEIKDYKARLTCPCCNMRKKDAVLTKCFHVFCFECVKTRYDTRQRKCPKCNAAFGANDFHRIYIG chain 2: MSTPARRRLMRDFKRLQEDPPAGVSGAPSENNIMVWNAVIFGPEGTPFEDGTFKLTIEFTEEYPNKPPTVRFVSKMFHPNVYADGSICLDILQNRWSPTYDVSSILTSIQSLLDEPNPNSPANSQAAQLYQENKREYEKRVSAIVEQSWRDCVEVYADADEILQEEIKEYKARLTCPCCNTRKKDAVLTKCFHVFCFECVRGRYEARQRKCPKCNAAFGAHDFHRIYIS
Reply: 8.11

Measured values drawn from paper PMC10959955 for this set.
